- System: 7G8
- Test method notes: qHTS profiling for inhibitors of Plasmodium falciparum proliferation (AID 504749); note: nearly all actives have a fitted effect of over 60% in size; note: potency is the fitted concentration of half-maximal effect
- Experimental context: P. falciparum in erythrocytes, SYBR Green DNA, 72 h; series mostly up to 28.7 µM
Results filed as inconclusive are left out. The source made the active and inactive calls. Calls come from the whole dose curve; as a rule, active = well fitted inhibition curve with a large enough effect; inconclusive = small, poorly fitted or top-dose-only effect; inactive = flat fitted curve, though single readings scatter.
Readout kind: Potency

CNCCC(Oc1ccccc1OC)c1ccccc1 (stereo not drawn)	4.47 µM (active)
NC(=O)N1c2ccccc2C=Cc2ccccc21	inactive
O=C(O)CP(=O)(O)O	inactive
CCCCOCCOCCOCc1cc2c(cc1CCC)OCO2	inactive
CCc1cccc(N(C)C(N)=Nc2cccc3ccccc23)c1	3.98 µM (active)

Potency measured on CCOC(=O)c1cnc2c(cnn2CC)c1NN=C(C)C = 11.2 µM (active)

Entry Cc1nc2ccccn2c(=O)c1CCN1CCC(C(=O)c2ccc(F)cc2)CC1 — recorded Potency = 14.1 µM (active)

* * *

- System under test: Muscarinic acetylcholine receptor M1 (Rattus norvegicus) (UniProt P08482)
- Sequence (P08482 whole entry, looked up): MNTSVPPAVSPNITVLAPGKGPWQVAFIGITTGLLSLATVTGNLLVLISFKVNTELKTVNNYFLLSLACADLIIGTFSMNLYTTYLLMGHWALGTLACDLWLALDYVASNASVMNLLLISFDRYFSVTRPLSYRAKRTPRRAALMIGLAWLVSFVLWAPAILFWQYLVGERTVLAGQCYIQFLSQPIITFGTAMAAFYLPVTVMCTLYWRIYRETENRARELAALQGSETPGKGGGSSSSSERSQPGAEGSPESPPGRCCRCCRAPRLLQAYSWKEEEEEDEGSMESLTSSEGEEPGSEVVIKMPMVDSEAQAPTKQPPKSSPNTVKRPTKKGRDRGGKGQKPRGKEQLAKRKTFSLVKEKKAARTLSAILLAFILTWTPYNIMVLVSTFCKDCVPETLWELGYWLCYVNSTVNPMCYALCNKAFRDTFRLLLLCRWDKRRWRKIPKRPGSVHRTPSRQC
- Test method notes: qHTS Assay for Antagonists of Acetylcholine Muscarinic M1 Receptor: Kinetic Measurement of Intracellular Calcium Response (AID 943); note: nearly all actives have a fitted effect of over 75% in size; note: potency is the fitted concentration of half-maximal effect
- Experimental context: M1-expressing cells, kinetic intracellular calcium fluorescence; series mostly up to 35.3 µM
Results filed as inconclusive are left out. Calls of active or inactive are those of the source. The call rests on the fitted dose curve; in most records, active means well fitted inhibition curve with a large enough effect; inconclusive means small, poorly fitted or top-dose-only effect; inactive means no such curve, though single readings can be large or run the other way.
Readout kind: Potency

O=C(CCNNC(=O)c1ccncc1)NCc1ccccc1	inactive
COC(=O)[C@@H](N)Cc1ccc(O)c(O)c1	inactive
CCCN(CCC)CCc1cccc2c1CC(=O)N2	17.8 µM (active)

* * *

- Test method notes: qHTS of pediatric cancer cell lines to identify multiple opportunities for drug repurposing: Primary screen for DAOY cells (AID 1347090); note: nearly all actives have a fitted effect of over 55% in size
- Experimental context: DAOY medulloblastoma viability, CellTiter-Glo luminescence, 48 h; series mostly up to 46 µM
Inconclusive results are not listed. Calls of active or inactive are those of the source. The call rests on the fitted dose curve; in most records, active means well fitted cell-killing curve with a large enough effect; inconclusive means small, poorly fitted or top-dose-only effect; inactive means flat fitted curve, though single readings scatter.
Select the matching outcome among T = active, F = inactive

Known results for compounds:
NC(=O)c1cn(Cc2c(F)cccc2F)nn1	F
CN(C)CCCN1c2ccccc2Sc2ccccc21	F
Cc1cc(C)c(/C=C2\C(=O)Nc3ccccc32)[nH]1	F
CCO/C([O-])=N/c1c[n+](N2CCOCC2)no1	F
Nc1c2c(nc3ccccc13)CCCC2O (stereo not drawn)	F
CCCN(CCC)CCc1cccc2c1CC(=O)N2	F

Please look at the following compound next.
Identify the outcome logged in this assay for the compound shown: Cc1cccc(C)c1NC(=O)C(C)N (stereo not drawn)
F

* * *

- Test system: W2
- Test method notes: qHTS profiling for inhibitors of Plasmodium falciparum proliferation (AID 504749); note: nearly all actives have a fitted effect of over 60% in size
- Experimental context: P. falciparum in erythrocytes, SYBR Green DNA, 72 h; series mostly up to 28.7 µM
Inconclusive results are not listed. Active and inactive are the calls of the source. Calls follow the shape of the dose curve; as a rule, active = well fitted inhibition curve with a large enough effect; inconclusive = small, poorly fitted or top-dose-only effect; inactive = flat fitted curve, though single readings scatter.
Give your call using only these classes: Y = active, N = inactive

CCn1cc(C(=O)O)c(=O)c2cc3c(cc21)OCO3	N
CC(=O)Nc1nnc(S(N)(=O)=O)s1	N
CCN(CC)CCCN(c1ccccc1)C1Cc2ccccc2C1	Y
CC(C)(C)c1ccc(C(=O)CCCN2CCC(OC(c3ccccc3)c3ccccc3)CC2)cc1	Y
CCCCCN(CCCCC)C(=O)C(CCC(=O)O)NC(=O)c1ccc(Cl)c(Cl)c1 (centres undefined)	N
Cc1nc2ccccn2c(=O)c1CCN1CCC(C(=O)c2ccc(F)cc2)CC1	Y
O=C(O)CCCCCCCC(=O)O	N
NC(N)=N/N=C/c1c(Cl)cccc1Cl	Y

Status in this test for CCCC(C(=O)OCCN(CC)CC)(c1ccccc1)c1ccccc1 ?
Y
